- Protocol description: CREB reporter modulators without forskolin, primary screen, cell-based, PC12, CRE-LacZ reporter, unstimulated (AID 1145)
- Details: no forskolin, luminescence, 4.5 h, called active from +8 up or from −8 down
Activity calls are given as the source filed them.
Lab note: assign the record to one of Y = active, N = inactive

Challenge: Any idea what this test logged for [N-]=[N+]=NCc1ccccc1C[C@@]1(C(N)=O)N=C(c2ccc(OCCCO)cc2)O[C@@H]1c1ccccc1N=[N+]=[N-] ?
Response given: N

Challenge: Any idea what this test logged for C=CCNC(=O)[C@H]1[C@@H]2C(=O)O[C@@H](c3ccccc3)[C@@H](c3ccccc3)N2[C@@H](c2ccc(OCCO)cc2)[C@]12C(=O)N(C(=O)OCCOC)c1ccc(C#CCNC(N)=O)cc12 ?
Response given: N

Challenge: Any idea what this test logged for CC(CO)N1C(=O)[C@@H]2[C@H]3C(=O)OCC=C[C@H]3OC23C=CCN(c2ccc4ccccc4c2)C(=O)[C@@H]13 (stereo not given in full) ?
Response given: N

Challenge: Any idea what this test logged for O=C1c2ccccc2[C@@]2(Cc3ccccc3N(CC(F)(F)F)C2=O)[C@H](c2ccc(CO)cc2)N1Cc1ccccc1 ?
Response given: N

Challenge: Any idea what this test logged for C=C(/C=C\CNS(=O)(=O)c1ccc(C)cc1)[C@H](O)[C@H]1CCCN1S(=O)(=O)c1ccccc1[N+](=O)[O-] ?
Response given: Y

Challenge: Any idea what this test logged for Cc1ccc(N2C(=O)c3ccccc3[C@@H](C(=O)NCCN3CCOCC3)[C@@H]2c2ccc(CO)cc2)nc1 ?
Response given: N

Challenge: Any idea what this test logged for CN1C(=O)C2C=CC(C(O)COCc3ccccc3)N(Nc3ccc([N+](=O)[O-])cc3[N+](=O)[O-])C2C1=O (stereo not given) ?
Response given: N

Challenge: Any idea what this test logged for O=C1O[C@@H](c2ccccc2)[C@@H](c2ccccc2)N2[C@@H](c3ccccc3OCCO)[C@]3(C(=O)Nc4ccc(C#CC5(O)CCCCCC5)cc43)[C@@H](C(=O)N3CCCCCCC3)[C@H]12 ?
Response given: N

Challenge: Any idea what this test logged for C[C@H]1C2[C@H](Cc3ccccc3)NC(=O)[C@]23C(=O)N[C@@H](Cc2ccccc2)C(=O)N2CCC[C@H]2C(=O)NC/C=C/CC/C=C/C3[C@@H]2O[C@]12C (stereo not given in full) ?
Response given: N

Challenge: Any idea what this test logged for C=C(C(=O)CC[C@@H](OC(=O)c1ccccc1-c1ccccc1C(=O)O)c1cccc(OCCO)c1)C(C)C ?
Response given: N

Challenge: Any idea what this test logged for C=CC[C@H](O)c1ccc(O)c(F)c1 ?
Response given: N

Challenge: Any idea what this test logged for COCCCNC(=O)[C@@]1(Cc2ccccc2I)c2ccccc2C(=O)N(Cc2ccccc2OC)[C@H]1c1ccc(CO)cc1 ?
Response given: N

Challenge: Any idea what this test logged for CS(=O)(=O)CCOC(=O)C1=CC(CCCO)=CC(C2CC2)N(Cc2sc3ccccc3c2Cl)C=C1C(=O)OCCS(C)(=O)=O (stereo not given) ?
Response given: N

Challenge: Any idea what this test logged for C[C@]1(C(=O)O)c2ccccc2C(=O)N(Cc2cc(C(F)(F)F)cc(C(F)(F)F)c2)[C@H]1c1ccc(CO)cc1 ?
Response given: N

Challenge: Any idea what this test logged for C=C(COC)C(=O)CC[C@H](OC(C)=O)c1ccc(CO)o1 ?
Response given: N

Challenge: Any idea what this test logged for C=CCOC(=O)[C@H]1[C@@H]2C(=O)O[C@@H](c3ccccc3)[C@@H](c3ccccc3)N2[C@@H](c2ccc(OCCOC(=O)[C@H]3C[C@H]4C(=O)NCC(=O)N4[C@H]3c3ccc(O)cc3)cc2)[C@]12C(=O)Nc1ccccc12 ?
Response given: N

Challenge: Any idea what this test logged for COc1ccc([Si](C)(C)[C@@H]2[C@@H](CC(=O)N(CCO)Cc3ccccc3)O[C@]3(C(=O)N(Cc4cccc(I)c4)c4ccccc43)[C@H]2C)cc1 ?
Response given: N

Challenge: Any idea what this test logged for CCCCCN1CC=CC23O[C@@H]4/C=C\CCCOC(=O)C4[C@H]2C(=O)N(CCCCCO)[C@@H]3C1=O (stereo not given in full) ?
Response given: N

Challenge: Any idea what this test logged for Cc1ccc(S(=O)(=O)N2[C@@H](c3ccccc3)C(C(=O)O)=C[C@H]2C(C)(C)C)cc1 ?
Response given: N

Challenge: Any idea what this test logged for Cc1cccc([C@H]2C[C@H]3C(Br)=C[C@@]2(CO)C(=O)[C@]32CO2)c1 ?
Response given: N

Challenge: Any idea what this test logged for C=CC[C@@]1(C(=O)NCCCOC)N=C(c2ccc(OCCCO)cc2)O[C@@H]1c1ccccc1CN=[N+]=[N-] ?
Response given: N

Challenge: Any idea what this test logged for O=C(c1ccccc1)N1Cc2ccccc2C[C@@]2(N=C(c3ccc(OCCCO)cc3)O[C@H]2c2ccccc2)C1=O ?
Response given: N

Challenge: Any idea what this test logged for COCCCNC(=O)[C@@]1(Cc2ccccc2I)c2ccccc2C(=O)N(Cc2ccccc2C(F)(F)F)[C@H]1c1ccc(CO)cc1 ?
Response given: N

Challenge: Any idea what this test logged for Cc1ccc(S[C@]2(C(=O)NC3CC3)CC(=O)N(C3Cc4ccccc4C3)[C@@H]2c2ccc(CO)cc2I)cc1 ?
Response given: N

Challenge: Any idea what this test logged for CCCC=C(CCC)[C@@H](NC(=O)c1ccc(C(=O)OC)cc1)c1ccc(C(=O)OC)cc1 ?
Response given: N

Sourced from PubChem BioAssay
